Test: NF-kB promoter reporter activators, neuronal cells, dose response, cell-based, SH-SY5Y, luciferase (AID 1241)
Conditions: fold induction
readout: EC50

Prompt line: Consider the molecule shown here: Cc1ccc(/C=C/C(=O)N2CCc3ccccc32)o1 What is its recorded EC50?
Response line: 1330 nM

Prompt line: Proceed to CN=c1scc(C)n1/N=C/c1ccc2c(c1)OCO2
Response line: 129 nM

Next molecule, please.
Prompt line: Consider the molecule shown here: CCCOc1ccc(C(=O)Nc2ccc(Cl)cn2)cc1 What is its recorded EC50?
Response line: 1090 nM

---

Test: NF-kB promoter reporter activators, neuronal cells, dose response, cell-based, SH-SY5Y, luciferase (AID 1241)
Conditions: fold induction
readout: EC50

Example cases with answers are listed next.
Prompt line: Consider the molecule shown here: O=C(OCC(=O)c1c[nH]c2ccccc12)c1cccc(O)c1 What is its recorded EC50?
Response line: 14.6 µM

Prompt line: Proceed to CCCCc1ccc(-c2ccc(C)cc2O)nc1
Response line: 3.25 µM

Prompt line: Proceed to COc1cccc(-c2nc(-c3ccccc3)no2)c1
Response line: 1.49 µM

Prompt line: Proceed to Oc1ccc(/C=N/Nc2cccc3cccnc23)c(O)c1
Response line: 2.95 µM

Prompt line: Proceed to Cc1ccc(-c2nc3cc(N)ccc3o2)cc1
Response line: 2.17 µM

Prompt line: Proceed to Oc1c(C(Nc2ccccn2)c2ccccn2)ccc2cccnc12 (stereo unspecified)
Response line: 3.99 µM

Prompt line: Proceed to O=C(Nc1nc2c(s1)CCCC2)c1cccs1
Response line: 1.07 µM

Prompt line: Proceed to O=C(Nc1nc(-c2nc3ccccc3s2)cs1)C1CC1
Response line: 15.6 µM

Further cases:
Prompt line: Consider the molecule shown here: Cc1ccc2nc(-c3ccc(NC(=O)COC(=O)c4ccc(Br)o4)cc3)sc2c1 What is its recorded EC50?
Response line: 0.485 µM

Prompt line: Proceed to COc1ccc2nc(NC(=O)c3ccoc3C)sc2c1
Response line: 3.99 µM

Prompt line: Proceed to Cc1nn(-c2ccc([N+](=O)[O-])cc2)c(N)c1-c1ccccc1
Response line: 6.72 µM

Prompt line: Proceed to Cc1ccc(-c2nc3ccccc3[nH]2)cc1N
Response line: 3.41 µM

Prompt line: Proceed to Oc1ccc(N=Nc2n[nH]c(-c3ccccc3)n2)cc1
Response line: 3.99 µM

Prompt line: Proceed to CCOC(=O)c1cnc2c(-c3ccccc3)cnn2c1N
Response line: 5.18 µM

Prompt line: Proceed to Nc1ccc(-c2nc3cc(N)ccc3s2)cc1
Response line: 1.1 µM

Prompt line: Proceed to COc1ccc(N=C(C)C2=C(O)c3ccccc3C2=O)cc1
Response line: 0.889 µM
